IC50 data for UniProt P00519 follow.
Sequence (P00519 whole entry): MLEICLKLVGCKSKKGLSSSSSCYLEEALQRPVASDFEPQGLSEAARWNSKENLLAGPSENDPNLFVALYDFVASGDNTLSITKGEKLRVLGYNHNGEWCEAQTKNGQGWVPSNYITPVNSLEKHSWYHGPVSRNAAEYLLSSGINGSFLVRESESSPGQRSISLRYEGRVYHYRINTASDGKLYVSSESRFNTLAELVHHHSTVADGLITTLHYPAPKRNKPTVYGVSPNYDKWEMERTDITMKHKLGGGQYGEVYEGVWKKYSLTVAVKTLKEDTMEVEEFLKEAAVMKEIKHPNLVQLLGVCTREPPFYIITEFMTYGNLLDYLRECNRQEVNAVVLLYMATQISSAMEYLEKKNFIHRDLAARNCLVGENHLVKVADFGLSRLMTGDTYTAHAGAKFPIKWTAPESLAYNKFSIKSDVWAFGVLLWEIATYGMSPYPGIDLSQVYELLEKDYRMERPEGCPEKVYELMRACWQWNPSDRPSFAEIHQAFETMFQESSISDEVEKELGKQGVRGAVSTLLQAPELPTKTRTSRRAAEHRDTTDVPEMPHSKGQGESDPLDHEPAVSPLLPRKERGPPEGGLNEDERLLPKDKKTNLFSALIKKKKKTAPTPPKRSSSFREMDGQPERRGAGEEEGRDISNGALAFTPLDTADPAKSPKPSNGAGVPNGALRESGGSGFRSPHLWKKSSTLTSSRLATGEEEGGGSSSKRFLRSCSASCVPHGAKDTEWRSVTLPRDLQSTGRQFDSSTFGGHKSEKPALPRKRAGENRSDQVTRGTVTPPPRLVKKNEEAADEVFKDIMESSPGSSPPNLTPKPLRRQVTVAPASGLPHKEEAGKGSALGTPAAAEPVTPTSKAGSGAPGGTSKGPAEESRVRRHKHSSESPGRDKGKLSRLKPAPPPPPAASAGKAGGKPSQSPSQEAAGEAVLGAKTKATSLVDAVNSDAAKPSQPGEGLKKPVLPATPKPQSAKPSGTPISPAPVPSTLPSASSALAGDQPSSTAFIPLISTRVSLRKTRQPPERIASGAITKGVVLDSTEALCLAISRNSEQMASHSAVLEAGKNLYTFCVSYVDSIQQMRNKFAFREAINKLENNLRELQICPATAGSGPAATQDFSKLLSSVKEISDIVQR

Input line: Find IC50 (UniProt P00519) for the entry CCn1cc(C#Cc2cc(NC(=O)c3cc(-n4cnc(C)c4)cc(C(F)(F)F)c3)ccc2C)c2c(N)ncnc21
Output line: ≤ 5 nM

Input line: Find IC50 (UniProt P00519) for the entry CCn1cc(C#Cc2cc(C(=O)Nc3cc(-n4cnc(C)c4)cc(C(F)(F)F)c3)ccc2C)c2c(N)ncnc21
Output line: 5 to 50 nM

Input line: Find IC50 (UniProt P00519) for the entry Cc1ccc(NC(=O)c2ccc(CN3CCN(C)CC3)c(C(F)(F)F)c2)cc1C#Cc1cn(C)c2ncnc(N)c12
Output line: ≤ 5 nM

Input line: Find IC50 (UniProt P00519) for the entry CCc1nc(C#Cc2cc(C(=O)Nc3cccc(C(F)(F)F)c3)ccc2C)c2c(N)nccn12
Output line: 5 to 50 nM

Input line: Find IC50 (UniProt P00519) for the entry CCn1cc(C#Cc2cc(C(=O)Nc3ccc(CN(C)C)c(C(F)(F)F)c3)ccc2C)c2c(N)ncnc21
Output line: ≤ 5 nM

Input line: Find IC50 (UniProt P00519) for the entry CCn1cc(C#Cc2cc(NC(=O)c3ccc(CN4CCN(C)CC4)c(C(F)(F)F)c3)ccc2C)c2c(N)ncnc21
Output line: ≤ 5 nM

Input line: Find IC50 (UniProt P00519) for the entry CCn1cc(C#Cc2cc(C(=O)Nc3cccc(C(F)(F)F)n3)ccc2C)c2c(N)ncnc21
Output line: ≤ 5 nM

Input line: Find IC50 (UniProt P00519) for the entry Cc1ccc(C(=O)Nc2ccc(CN3CCN(C)CC3)c(C(F)(F)F)c2)cc1C#Cc1nc(C(C)C)n2ccnc(N)c12
Output line: ≤ 5 nM

Input line: Find IC50 (UniProt P00519) for the entry Cc1ccc(C(=O)Nc2ccc(C)c(C(F)(F)F)c2)cc1C#Cc1cn([C@H]2CC[C@H](O)CC2)c2ncnc(N)c12
Output line: ≤ 5 nM

Input line: Find IC50 (UniProt P00519) for the entry Cc1ccc(NC(=O)c2ccc(CN3CCN(C)CC3)c(C(F)(F)F)c2)cc1C#Cc1cn([C@H]2CC[C@H](O)CC2)c2ncnc(N)c12
Output line: ≤ 5 nM
